Provide the recorded Percent Effect for the entries that follow.
testProtocol: In vitro enzyme assay to detect hydrolysis of chlorophenol red-beta-D-[…] directly proportional to the number of Toxoplasma stably expressing beta-galactosidase
Format: functional, organism-based, Toxoplasma gondii
Parameters: scale not given: in the data most compounds retested in dose-response had high values
conditionsUsed: 50 µM
Among all 85,000 compounds or so, about 440 (0.52%) showed an effect of 50% or more. What follows is part of a selection rich in strong results, with near analogues and random picks from the rest.
Provide the reading as a plain figure in %.

Q. Query (molecule): COCCC1(CN2CCC(C(N)=O)C2)CCC1 (stereo not drawn) ; field requested: Percent Effect
A. 68.22

Q. Try O=C(NCc1ccnc(NC2CC2)c1)C1CCCCC1 next.
A. 17

Q. Now try OCCNCCNCc1ccc(-c2cccc(Cl)c2)o1 .
A. 71.47

Q. Note, next up: CNC(=O)C1CCCN(C(=O)Cc2ccc(F)cc2)C1 (stereo not drawn)
A. -18.03

Q. Request: O=S1(=O)CCC(NC2CCNCC2)C1 (stereo not drawn)
A. 0.6188

Q. Try this molecule too: O=C(c1cnsn1)N1CC=C(c2ccccc2)CC1
A. 3.694

Q. Same read-out for NC1CCN(C(=O)C2CCCC2)C1 (stereo not drawn) ?
A. 2.86

Q. Same lookup for O=C(Nc1ccc2c(c1)OCO2)N1CCOCC1 , please.
A. -3.838

Q. Can you check CCn1nc(CC(C)C)cc1C(=O)N1CCC(N)C1 (stereo not drawn) next?
A. -11.21

Q. Input CCS(=O)(=O)N1CCC(NC(=O)c2ccc(Cl)o2)CC1
A. -2.927

Q. Same question, CC1(C)CN(c2nccnc2C#N)CCS1(=O)=O this time
A. -1.06

Q. Same again, this time with Cc1ccc(F)cc1S(=O)(=O)N1CCN[C@H](C)C1
A. -0.3006

Q. # repeat for CN(CCOCCO)CCOc1ccc(F)cc1
A. 15.3

Q. What do you get for Cc1cccc(CC(=O)NCC2CCCNC2)c1 (stereo not drawn) ?
A. -6.216

Q. Further, for CC(=O)c1ccc(Br)o1 ?
A. 1.756

Q. And for NC(=O)c1cncc(-c2ccc(F)cc2Cl)c1 ?
A. 3.051

Q. Proceed to NCC(O)c1ccncc1 (stereo not drawn)
A. 1.266

Q. And the next one, CNCC(=O)Nc1cc(Cl)ccc1OC ?
A. -3.261

Q. Can you handle CC(=O)C1CN(C(=O)OC(C)(C)C)CCO1 (stereo not drawn) next?
A. -6.486

Q. Note, next up: Cc1ccc(Cl)cc1NC(=O)CN1CCNC(=O)C1
A. 47.59

Q. Param item: NCc1nc(-c2ccccn2)no1
A. -15.18

Q. Likewise for CCN1CCC(CNC(=O)c2nc(C)c[nH]2)CC1 ?
A. -1.833

Q. Would you kindly repeat that for CCN(CC)C(=O)c1ccccc1N(C)S(C)(=O)=O ?
A. -4.295

Q. What would you report for CN(CCN1CCCC1=O)C(=O)c1ncccc1Br ?
A. -6.361

Q. Here is the next molecule: Cn1nc(CC#N)c2ccccc21
A. -11.92

Q. Okay, and O=C(c1cnn(-c2ccccc2)c1)N1CCCCC1 ?
A. -4.798

Q. Same lookup for O=C(CC1CSCCN1)NCCc1ccc(F)cc1F (stereo not drawn) , please.
A. 0.8144

Q. Now try CCNc1ncc(C(=O)N2CCCCC2)s1 .
A. 3.681

Q. Now this one: O=C(c1ccc(O)nc1)N1CCCCCCC1
A. -10.69

Q. Also, NCCC(=O)N1CCCC(CCc2ccc(F)cc2)C1 (stereo not drawn) please.
A. 62.64

Q. Same again, this time with CCN(CC)c1nc2nc[nH]c(=O)c2s1
A. -4.057

Q. Next molecule up: Cc1n[nH]c(SCCN)n1
A. 7.335

Q. Next molecule: NCc1nc(-c2ccccn2)cs1
A. -2.115

Q. Field entry: COc1ccc(CNCCn2cccn2)cc1OC
A. -8.387

Q. Record: CNC(=O)NC(=O)CSc1ccccc1F
A. -1.003

Q. Try CN(CCN)S(=O)(=O)c1cccs1 next.
A. -2.794

Q. Same thing, different molecule: COc1ccc(CC(=O)NCC2CCCNC2)cc1F (stereo not drawn)
A. 55.41

Q. What do you get for COc1c(N)c(C)nn1C ?
A. 95.49

Q. // next record CCNC(=O)CN1CCN(Cc2cccnc2N)CC1
A. 3.908

Q. One more molecule: CNC(C)(C)c1ccc2c(c1)OCO2
A. -13.39

Q. Another molecule to look at: OCCNCCNCc1ccc(-c2ccccc2)o1
A. 1.266

Q. Another: COC(=O)c1cccc(COC(=O)CCNC(C)=O)c1
A. -1.212

Q. Please do the same for COC(=O)c1snc(-c2ccccc2)c1N as well.
A. 3.849

Q. Another molecule to check: Cc1nnc(SCC(=O)C(C)(C)C)[nH]1
A. 12.7

Q. Next molecule up: O=C1CN(CC(=O)Nc2c(Cl)cccc2Cl)CCN1
A. 55.2

Q. Queued: CN(Cc1cc(C#N)cs1)Cc1nccn1C
A. -7.444

Q. Again, but for NC(=O)C1CCCN1C(=O)C1CCNCC1 (stereo not drawn)
A. -2.32

Q. Same read-out for CCn1ccnc1C(C)N (stereo not drawn) ?
A. 1.366

Q. Now give it for NCC(=O)N1CCCC(CCc2ccc(F)cc2)C1 (stereo not drawn) too.
A. 31.97

Q. Try Cc1[nH]ncc1C(=O)NCCCSCC(C)C next.
A. 11.62

Q. Same for NCC(O)c1ccc(-c2ccccc2)cc1 (stereo not drawn)
A. 100.3

Q. Param item: CC1(C)CC(n2cccn2)C(C)(C)O1 (stereo not drawn)
A. 95.21

Q. Cool, now CS(=O)(=O)C1CCCCN(C(=O)CC2CCSCC2)C1 (stereo not drawn)
A. -13.3

Q. Check CCC(N)c1cnn(CC)c1 (stereo not drawn) too.
A. -19.44

Q. Further, for O[C@@H]1CCC[C@H]1n1cccn1 ?
A. 27.87

Q. Try the molecule COCCC1(CO)CCCN(CC(N)=O)C1 (stereo not drawn)
A. 0.1422

Q. Another molecule: COCCC1(CN2CCCC(C(N)=O)C2)CCC1 (stereo not drawn)
A. -0.683

Q. Entry to check: CCOc1ncccc1C(=O)N1CCC(COC)C1 (stereo not drawn)
A. -5.58
